Reference for the values: patent US20060084596A1

Target: vascular endothelial growth factor (VEGF) (UniProt P15692-4 27-191, limits assumed)
Sequence (P15692 other isoform, or with tags, fused parts or gaps limits assumed): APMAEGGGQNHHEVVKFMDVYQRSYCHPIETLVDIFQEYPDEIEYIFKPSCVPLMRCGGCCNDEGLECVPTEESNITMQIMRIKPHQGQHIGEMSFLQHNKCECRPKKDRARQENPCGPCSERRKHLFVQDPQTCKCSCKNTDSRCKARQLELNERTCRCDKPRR
Experiment: cell-based or functional assay
Positions of bridges follow the written chain, without caps; N, C: chain ends.

| Binder | IC50, Flk-1-Y-P |
| --- | --- |
| GKGK (designed binder, linker N-C via 3‑aminomethyl‑5‑aminobenzamide; also: four loops on But-Calix scaffold) [GFB-116] | 0.3 µM |
| ADGD (designed binder, linker N-C via 3‑aminomethyl‑5‑aminobenzamide; also: four loops on But-Calix calix[4]arene scaffold) [GFB-112] | < 10 µM |
| GDGD (designed binder, linker N-C via 3‑aminomethyl‑5‑aminobenzamide; also: four loops on But-Calix calix[4]arene scaffold) [GFB-107] | < 10 µM |
